molecular target: T1, full length recombinant human 2N4R tau (human, UniProt P10636 1-758); assay: SPR SCK, IgG on Protein A, tau in flow
T1 construct: bought from rPeptide; pHrodo Red maleimide-labelled where it stands in uptake assays; also called tau1-441; full length tau
T1 sequence (P10636 other isoform, or with tags, fused parts or gaps limits assumed): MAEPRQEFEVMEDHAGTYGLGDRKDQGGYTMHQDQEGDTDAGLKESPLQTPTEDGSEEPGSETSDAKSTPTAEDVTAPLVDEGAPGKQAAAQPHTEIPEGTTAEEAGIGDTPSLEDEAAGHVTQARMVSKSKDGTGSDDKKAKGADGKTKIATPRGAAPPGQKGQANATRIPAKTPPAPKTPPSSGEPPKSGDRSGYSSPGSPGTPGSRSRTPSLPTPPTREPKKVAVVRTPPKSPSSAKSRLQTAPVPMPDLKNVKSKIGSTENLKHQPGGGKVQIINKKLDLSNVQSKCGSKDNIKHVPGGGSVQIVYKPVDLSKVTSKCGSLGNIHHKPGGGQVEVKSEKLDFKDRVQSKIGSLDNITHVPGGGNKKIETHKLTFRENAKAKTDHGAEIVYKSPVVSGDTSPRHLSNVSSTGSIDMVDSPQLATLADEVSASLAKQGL
measure-name: koff (s⁻¹)
Numeric answer only, unit s⁻¹ assumed.

Observe how each entry below is paired with its result.
• #44_VH4VK4_H06-H02/pVL (antibody, V domains shown, also called H06-02/pVL; Clone VH4_H06_H02) VH: QVQLQESGPGLVKPSETLSLTCTVSGIDLSSYAMAWVRQAPGKGLEWIGVIDAAGHTFYASWVKGRFTISKDTSKTTVDLQMTSLTAEDTATYFCARDRGDFDVWGQGTLVTVSS VL: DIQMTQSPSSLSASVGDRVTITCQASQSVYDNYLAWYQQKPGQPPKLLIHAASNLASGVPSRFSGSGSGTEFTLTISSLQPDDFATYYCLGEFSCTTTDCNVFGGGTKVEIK = 0.00489
• #44_VH4VK4_H03/pVL (antibody, V domains shown, also called Clone VH4_H03; #44_VH4_H03) VH: QVQLQESGPGLVKPSETLSLTCTVSGIDLSSYAMAWVRQAPGKGLEWIGCIDRRGGTFYASWVKGRFTISKDTSKTTVDLQMTSLTAEDTATYFCARDAGAFDVWGQGTLVTVSS VL: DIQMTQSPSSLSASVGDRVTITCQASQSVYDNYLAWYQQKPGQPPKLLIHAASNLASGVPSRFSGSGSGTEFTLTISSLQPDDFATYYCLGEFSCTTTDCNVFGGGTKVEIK = 0.0151

Please examine the following record next.
Query: So what does the record say about koff for #44_VH4VK4_H01/pVL (antibody, V domains shown, also called Clone VH4_H01; #44_VH4_H01) VH: QVQLQESGPGLVKPSETLSLTCTVSGIDLSSYAMAWVRQAPGKGLEWIGCIDRRGGTFYASWVKGRFTISKDTSKTTVDLQMTSLTAEDTATYFCARDVGSFDVWGQGTLVTVSS VL: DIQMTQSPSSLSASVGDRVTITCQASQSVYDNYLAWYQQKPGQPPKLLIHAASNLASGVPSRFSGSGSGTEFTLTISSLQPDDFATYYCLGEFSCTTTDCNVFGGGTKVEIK ?
Response: 0.00805
